- Target Of Assay: procaspase-6, Caspase-6 FL N-terminally (His)6 (Homo sapiens, UniProt P55212)
- Sequence (P55212 whole entry): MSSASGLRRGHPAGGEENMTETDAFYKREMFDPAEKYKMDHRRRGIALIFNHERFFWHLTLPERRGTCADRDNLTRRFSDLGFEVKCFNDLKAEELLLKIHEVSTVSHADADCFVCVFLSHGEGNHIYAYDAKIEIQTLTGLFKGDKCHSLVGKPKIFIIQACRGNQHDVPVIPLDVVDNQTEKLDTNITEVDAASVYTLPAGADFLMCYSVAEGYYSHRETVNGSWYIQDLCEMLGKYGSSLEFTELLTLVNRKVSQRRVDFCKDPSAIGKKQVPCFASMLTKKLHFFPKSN
Measured Attribute: IC50 (mM)
Provide only the numeric value, understood in mM.

input: Requested field: IC50. Item: Nc1ncnc2c1ncn2[C@@H]1O[C@H](COP(=O)(O)OP(=O)(O)OP(=O)(O)O)[C@@H](O)[C@H]1O [ATP, adenosine triphosphate]
output: 19
